assay: In vivo permeability / PK after intrajejunal administration in cannulated rats (Example 7); set-up: species or system male Wistar rats; details: male, Wistar, plasma, rat, 100 mg/kg, mean ± standard error
attribute.measured: Half-life (h)

INSERT INTO assay_data (molecule, attribute_measured, readout_number) VALUES
  ('CCCCCCCCCCCCCCCCCCCC(=O)N[C@H]1CCC2(C)C(CC(O)C3C2C[C@H](O)C2(C)C(C(C)CCC(=O)O)CCC32)C1 (stereo in doubt) [Aramchol (free acid), reference compound]', 'Half-life', 4.5),
  ('CCCCCCCCCCCCCCCCCCCC(=O)N[C@H]1CC[C@@]2(C)[C@@H](C1)C[C@@H](O)[C@@H]1[C@@H]2C[C@H](O)[C@]2(C)[C@@H]([C@H](C)CCC(=O)O)CC[C@@H]12', 'Half-life', 6.5);
